system: NCI-H226 lung; assay: NCI-60 one-dose screen, 48 h; conditions: 10 µM
Compounds without any hit were thinned out: in the full panel of roughly 83,000, 20% have a hit. The source made the active and inactive calls. Rule for the calls: active = growth percent below 10; inactive = the rest.
Possible outcomes: label 1 (active), label 0 (inactive)

>>> print(df.to_string())
                                    molecule  class_assignment
 0  COC(=O)c1c(C)nc(Nc2nc3ccccc3s2)nc1-c1ccc(Cl)cc1Cl           label 0
 1  O=C(Nc1cccc(-c2nc3ccccc3[nH]2)c1)c1cccc(NC(=O)c2ccco2)c1           label 0
 2  NC(N)=NS(=O)(=O)c1ccc(Nc2ccc3nnc(-c4ccncc4)n3n2)cc1           label 0
 3              Oc1ccc(/C=N\Nc2ccccn2)c(O)c1           label 0
 4  CCCC(C)c1ccc(OCCCCCCN2CCNCC2)cc1 (configuration not stated)           label 0
 5     O=C1/C(=C/c2ccc(O)cc2)CSc2ccc(Cl)cc21           label 0
 6  COc1cc(CSc2nc3ccc(Cl)cc3c(=O)n2Cc2ccccc2)cc(OC)c1OC           label 0
 7           CC(C)c1ncc(CO)n1Cc1c(Cl)cccc1Cl           label 0
 8  CCOC(=O)c1c(C(F)(F)F)n([O-])c2ccc(OC)cc2[n+]1=O           label 0
 9  NCCNc1ccc2cc(-c3nc4ccccc4[nH]3)c(=O)oc2c1           label 0
10  Cc1ccc([P+](Cc2ccccc2)(c2ccccc2)c2ccccc2)cc1           label 0
11     Fc1ccc2[nH]c3c(NCCCN4CCOCC4)ncnc3c2c1           label 0
12  CCN(CC)c1ccc(/C=C/C2=[N+](C)c3ccccc3C2(C)C)c(C)c1           label 0
13  CS(=O)(=O)Nc1ccc(Nc2c3ccccc3nc3cc(Cl)ccc23)cc1           label 1
14  C[N+]1(CC2CO2)CCCCCC1 (configuration not stated)           label 0
15  O=NN(CC(=O)N/N=C/C=C\c1ccccc1)CC(=O)N/N=C/C=C/c1ccccc1           label 0
16  Nc1ccc(Sc2ccc3c4c2cccc4c(=O)n2c4ccccc4nc32)cc1           label 0
17         CCSc1nc2c([nH]1)c(=O)n(C)c(=S)n2C           label 0
18  CC(=O)Oc1ccc(C2=Cc3ccc(OC(C)=O)cc3OC2C)cc1 (configuration not stated)           label 0
19  Fc1cc(-c2ncc(-c3cc(F)c(F)c(F)c3)c(NC3CCCCCC3)n2)cc(F)c1F           label 0
20  CCOC(=O)[C@@H](Cc1ccccc1)NC(=O)c1[nH]c2ccc(Cl)cc2c(=O)c1C           label 0
21  CCN1CCN(c2nc(NNC(=O)c3cccc(OC)c3)nc(N3CCN(C(c4ccccc4)c4ccccc4)CC3)n2)CC1           label 0
22  Cn1cnc([N+](=O)[O-])c1Sc1nnc(-c2ccccc2)c(-c2ccccc2)n1           label 0
23  O=NN(CCCl)C(=O)NCc1ccc(-c2ccc(CNC(=O)N(CCCl)N=O)cc2)cc1           label 0
24  Cc1ccc(C2C=C(c3ccc(Cl)cc3)N=C3SC=CN32)c(Br)c1 (configuration not stated)           label 0
25  COC(=O)[C@]12CC[C@@H](C)[C@H](C)[C@@H]1C1=CC[C@@H]3[C@@]4(C)CC(=O)[C@H](O)[C@@]5(C)COC(=C45)C[C@@]3(C)[C@]1(C)CC2           label 1
26             CCn1nc(-c2ccccn2)c2cccnc2c1=S           label 0
27                   COc1cc2ccnc(C=O)c2cc1OC           label 0
28  CC[C@@]1(C(N)=O)CC2C=CC1C2 (some centres not stated)           label 0
29  O=C(NC1CCN(Cc2ccccc2)CC1)c1cc(-c2ccncc2)nc2ccc(Cl)cc12           label 0
30  O=C(NCc1cn(Cc2cccc(Oc3ccccc3)c2)nn1)c1cccnc1Nc1ccccc1           label 0
31       COC(=O)c1ccc(Cn2ccc(=O)[nH]c2=O)cc1           label 0
32        Cn1c(N)c(N=Cc2ccccc2)c(=O)n(C)c1=O           label 0
33    COc1ccc(/C(CS(=O)(=O)c2ccccc2)=N\O)cc1           label 0
34  COc1ccc2c(c1)/C(=C/c1cc(OC)c(OC)c(OC)c1)C(=O)N2C           label 0
35  COC(=O)C1(C(=O)OC)C2C(=O)C3C(C21)C3(C(=O)OC(C)(C)C)C(=O)OC(C)(C)C (configuration not stated)           label 0
36  COc1cc(-c2nc3cc(Cl)c(Cl)cc3[nH]2)ccc1OCC(=O)NN           label 0
37  CNC(=O)c1cc(Oc2ccc(NC(=O)Nc3ccc(Cl)c(OC(C)C)c3)c(F)c2)ccn1           label 0
38  O=C(COc1ccc(-c2nc3ccccc3[nH]2)cc1)N=Nc1c(O)[nH]c2ccccc12           label 0
39  Cc1nn2c(/C=C3/C(=O)Nc4ccc(Cl)cc43)c(-c3ccccc3)nc2s1           label 0
40  CCOC(=S)Sc1ccc([N+](=O)[O-])cc1[N+](=O)[O-]           label 0
41  CNCCCNCCCN1C(=O)c2ccc3c4c(ccc(c24)C1=O)C(=O)N(CCCNCc1ccccc1OC)C3=O           label 1
